Experiment: Metabolic stability, rat liver microsomes
Format: in vitro ADME
Settings: pH 7.4; rat liver microsomes, not corrected for microsomal binding; read-out: LM CLint,app rat
Procedure: J. Metabolic stability - Microsome CLint,app Methodology - Liver microsomes The metabolic stability assay was performed in duplicate in a 96-well microtitre plate. […] The samples were centrifuged, and the supernatant was analyzed by LC-MS/MS (Agilent Rapid Resolution HPLC, AB SCIEX 4500 MS). […]
QUANTITY_KIND: CLint scaled at 0.5 h, 1 µM (mL/min/kg)
Give the quantity in mL/min/kg, number only.

COMPOUND | CLint scaled at 0.5 h, 1 µM / mL/min/kg
COc1cc2c(cc1OCc1ccccc1)N(C(=O)c1cc3cnccc3[nH]1)CC21CCN(C)CC1 [Compound 43] | 70.6
COc1cc2c(cc1OCc1ccccc1)N(C(=O)c1cc3ccccc3[nH]1)CC21CCN(C)CC1 [Compound 2] | 55

Now turn to the next compound.
Need CLint scaled at 0.5 h, 1 µM, item COc1cc2c(cc1OCc1ccccc1)N(C(=O)[C@H](N)Cc1ccccc1)CC21CCN(C)CC1 [Compound 47] 90.2
